assayed.system: ~100 representative kinases (Homo sapiens, UniProt Q02750)
Construct: Recombinant protein kinase domains with a concentration of 2 μM
Sequence (Q02750 whole entry, the tested form may be a part): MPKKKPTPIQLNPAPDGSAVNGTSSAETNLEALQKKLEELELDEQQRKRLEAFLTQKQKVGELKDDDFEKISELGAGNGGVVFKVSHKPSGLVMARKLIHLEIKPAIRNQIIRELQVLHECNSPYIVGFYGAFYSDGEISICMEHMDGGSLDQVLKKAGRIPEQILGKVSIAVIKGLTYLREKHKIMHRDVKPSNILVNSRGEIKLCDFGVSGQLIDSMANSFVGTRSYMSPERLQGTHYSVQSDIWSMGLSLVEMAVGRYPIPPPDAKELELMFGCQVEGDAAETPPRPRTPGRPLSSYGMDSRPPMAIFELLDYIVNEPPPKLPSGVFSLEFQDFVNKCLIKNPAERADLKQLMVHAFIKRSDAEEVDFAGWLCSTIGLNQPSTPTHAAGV
assay.notes: DSF 100 kinase selectivity screen;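 also: compound tested at 20 µM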
Type: binding
condition.label: protein MAP2K1; average of three replicates
property.name: dTm (K)
Answer with a number only, understood to be in K.

The compound listed as `Cc1ccc(-n2nc(C(C)(C)C)cc2NC(=O)Nc2cccc(-c3c[nH]c4ncnc(N5CCOCC5)c34)c2)cc1` shows dTm equal to 2.87

The compound listed as `COc1cc(S(C)(=O)=O)ccc1Nc1nc(N(C)C)c2c(Cl)c[nH]c2n1` shows dTm equal to -0.22

The compound listed as `Cn1cc(-c2c[nH]c3ncnc(N4CCOCC4)c23)cc1C#N` shows dTm equal to 0.65

The compound listed as `O=C(Nc1cccc(-c2c[nH]c3ncnc(N4CCOCC4)c23)c1)C1(C(=O)Nc2cccc3c2CCC3)CC1` shows dTm equal to 2.12

The compound listed as `C[C@@H]1CN(c2cc(-c3n[nH]c4ccc(OC5(C)CC5)cc34)ncn2)C[C@H](C)O1` shows dTm equal to -0.0332

The compound listed as `CC(=O)N1CCN(c2nc(Cl)nc3[nH]cc(-c4cccc(NC(=O)Nc5cc(C(C)(C)C)nn5-c5ccc(C)cc5)c4)c23)CC1` shows dTm equal to 0.59

The compound listed as `O=C(Nc1cccc(-c2c[nH]c3ncnc(N4CCOCC4)c23)c1)C1(C(=O)Nc2ccc(F)c(Br)c2)CC1` shows dTm equal to 2.40

* * *

assayed.system: ~100 representative kinases (Homo sapiens, UniProt Q15418)
Construct: Recombinant protein kinase domains with a concentration of 2 μM
Sequence (Q15418 whole entry, the tested form may be a part): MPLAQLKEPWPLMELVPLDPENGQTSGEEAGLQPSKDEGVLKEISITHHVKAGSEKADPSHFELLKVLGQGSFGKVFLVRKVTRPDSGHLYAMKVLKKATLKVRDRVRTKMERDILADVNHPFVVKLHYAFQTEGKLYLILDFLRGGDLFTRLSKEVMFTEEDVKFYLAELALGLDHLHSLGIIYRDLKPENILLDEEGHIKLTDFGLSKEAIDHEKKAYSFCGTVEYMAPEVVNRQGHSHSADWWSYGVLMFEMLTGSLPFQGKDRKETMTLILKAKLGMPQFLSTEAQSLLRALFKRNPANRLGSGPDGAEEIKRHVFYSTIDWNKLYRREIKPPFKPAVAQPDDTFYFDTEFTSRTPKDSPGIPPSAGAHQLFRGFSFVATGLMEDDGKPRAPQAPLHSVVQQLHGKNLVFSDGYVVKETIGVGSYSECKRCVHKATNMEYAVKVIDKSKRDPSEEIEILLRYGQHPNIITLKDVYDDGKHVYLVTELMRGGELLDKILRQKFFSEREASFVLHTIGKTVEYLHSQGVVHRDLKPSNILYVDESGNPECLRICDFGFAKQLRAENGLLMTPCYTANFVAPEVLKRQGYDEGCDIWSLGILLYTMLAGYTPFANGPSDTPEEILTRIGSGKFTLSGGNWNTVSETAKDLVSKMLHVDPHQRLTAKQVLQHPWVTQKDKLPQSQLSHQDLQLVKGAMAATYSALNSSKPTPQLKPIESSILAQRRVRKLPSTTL
assay.notes: DSF 100 kinase selectivity screen;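 also: compound tested at 20 µM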
Assay type: binding
condition.label: Protein RPS6KA1; DSF; average of three replicates
property.name: dTm (K)
Answer with a number only, understood to be in K.

The compound listed as `CC(=O)N1CCN(c2nc(Cl)nc3[nH]cc(-c4cccc(NC(=O)Nc5cc(C(C)(C)C)nn5-c5ccc(C)cc5)c4)c23)CC1` shows dTm equal to -0.67

The compound listed as `O=C(Nc1ccc(F)cc1)C1(C(=O)Nc2cccc(-c3c[nH]c4ncnc(N5CCOCC5)c34)c2)CC1` shows dTm equal to 0.23

The compound listed as COc1cc2c(Oc3ccc(NC(=O)C4(C(=O)Nc5ccc(F)cc5)CC4)cc3F)ccnc2cc1OCCCN1CCOCC1 [Foretinib, reference compound] shows dTm equal to -0.88

The compound listed as `COc1cc(NC(=O)C2(C(=O)Nc3cccc(-c4c[nH]c5ncnc(N6CCOCC6)c45)c3)CC2)ccc1F` shows dTm equal to 0.11

* * *

assayed.system: ~100 representative kinases (Homo sapiens, UniProt P16083)
Construct: Recombinant protein kinase domains with a concentration of 2 μM
Sequence (P16083 1-231): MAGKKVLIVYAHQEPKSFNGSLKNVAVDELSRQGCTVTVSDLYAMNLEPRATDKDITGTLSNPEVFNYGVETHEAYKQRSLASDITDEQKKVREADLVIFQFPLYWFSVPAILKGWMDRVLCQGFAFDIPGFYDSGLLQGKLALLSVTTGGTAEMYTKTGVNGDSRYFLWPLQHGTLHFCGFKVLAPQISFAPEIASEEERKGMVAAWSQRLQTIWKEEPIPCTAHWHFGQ
assay.notes: DSF 100 kinase selectivity screen;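 also: compound tested at 20 µM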
Type: binding
condition.label: protein NQO2; average of three replicates
property.name: dTm

The compound listed as COc1cc(NC(=O)C2(C(=O)Nc3cccc(-c4c[nH]c5ncnc(N6CCOCC6)c45)c3)CC2)ccc1F [Compound 21] shows dTm equal to -1.04 K

The compound listed as CCc1ccc(NC(=O)C2(C(=O)Nc3cccc(-c4c[nH]c5ncnc(N6CCOCC6)c45)c3)CC2)cc1 [Compound 15] shows dTm equal to 0.0657 K

The compound listed as O=C(Nc1ccc(Cl)cc1)C1(C(=O)Nc2cccc(-c3c[nH]c4ncnc(N5CCOCC5)c34)c2)CC1 [Compound 13] shows dTm equal to 0.45 K

The compound listed as COc1cc(C(=O)N2CCOCC2)c(F)cc1Nc1nc(N(C)C)c2c(Cl)c[nH]c2n1 [Compound 36] shows dTm equal to -0.44 K

The compound listed as O=C(Nc1cc(F)cc(Br)c1)C1(C(=O)Nc2cccc(-c3c[nH]c4ncnc(N5CCOCC5)c34)c2)CC1 [Compound 27] shows dTm equal to -1.53 K

The compound listed as Cc1ccc(-n2nc(C(C)(C)C)cc2NC(=O)Nc2cccc(-c3c[nH]c4nc(Cl)nc(N5CCOCC5)c34)c2)cc1 [Compound 30] shows dTm equal to 0.13 K

The compound listed as O=C(Nc1cccc(-c2c[nH]c3ncnc(N4CCOCC4)c23)c1)c1cccn(-c2ccc(F)cc2)c1=O [Compound 4] shows dTm equal to -0.15 K
